pKi values by entry
Target sequence: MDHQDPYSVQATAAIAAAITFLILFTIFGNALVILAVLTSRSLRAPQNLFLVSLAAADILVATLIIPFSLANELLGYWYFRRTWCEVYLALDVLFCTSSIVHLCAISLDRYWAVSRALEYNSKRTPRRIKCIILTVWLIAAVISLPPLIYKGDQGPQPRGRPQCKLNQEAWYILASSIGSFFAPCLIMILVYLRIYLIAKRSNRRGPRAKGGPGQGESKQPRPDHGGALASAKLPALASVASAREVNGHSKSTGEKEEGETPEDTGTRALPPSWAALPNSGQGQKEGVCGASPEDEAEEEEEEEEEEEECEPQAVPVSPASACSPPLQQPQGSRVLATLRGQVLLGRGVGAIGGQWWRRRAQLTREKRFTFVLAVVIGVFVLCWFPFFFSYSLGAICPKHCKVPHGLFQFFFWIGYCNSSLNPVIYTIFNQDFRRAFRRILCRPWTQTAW
pKi (log units): -log10 of the concentration in mol/L.

Known results for compounds:
compound	pKi
COc1ccccc1N1CCN(C[C@@H]2CN=C3c4ccccc4NC(=O)N32)CC1	5.03
COc1ccccc1N1CCN(CCn2c(=O)[nH]c3ccccc3c2=O)CC1	7.25

Alright, here's another compound for you.
In plain terms, COc1ccccc1N1CCN(CC2CN3C(=O)Nc4ccccc4C3=N2)CC1 (stereo not drawn) has a documented pKi of 6.60
